Molecular target: UniProtKB P25025
Sequence (P25025 1-360): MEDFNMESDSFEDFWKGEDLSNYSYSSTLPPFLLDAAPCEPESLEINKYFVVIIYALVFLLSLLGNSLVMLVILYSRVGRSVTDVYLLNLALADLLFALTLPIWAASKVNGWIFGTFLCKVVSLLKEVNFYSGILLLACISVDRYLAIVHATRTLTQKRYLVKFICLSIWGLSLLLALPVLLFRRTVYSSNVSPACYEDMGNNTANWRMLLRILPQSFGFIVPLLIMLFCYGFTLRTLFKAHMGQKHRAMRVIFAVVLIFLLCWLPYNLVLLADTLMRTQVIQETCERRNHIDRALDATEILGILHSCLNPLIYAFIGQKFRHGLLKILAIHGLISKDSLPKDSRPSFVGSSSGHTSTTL
Experiment: Human Neutrophil Chemotaxis Assay
Format: cell-based
Design: Human neutrophils were purified from freshly drawn human whole blood; endogenous in cells; host or cells: primary human neutrophils from fresh whole blood
Conditions: Table 14; R = H; read-out: R = H, IC50 (nM) CXCR2 Neutrophil, GROα Chemotaxis
REPORTED PROPERTY: IC50 (nM)

1. CN(C)C(=O)c1nccc(Nc2c(NC(c3ccn(C)n3)C3(C)CCCC3)c(=O)c2=O)c1O (stereo not drawn) [drawing 179 (R = H), reference compound] ... 42.1
2. Cc1nc([C@H](Nc2c(Nc3ccnc(C(=O)N(C)C)c3O)c(=O)c2=O)C2(C)CCCC2)co1 [drawing 181 (R = H), reference compound] ... 12.2
3. Cc1nc([C@H](Nc2c(Nc3ccnc(C(=O)N(C)C)c3O)c(=O)c2=O)C2(C)CCCC2)cs1 [drawing 180 (R = H), reference compound] ... 346

* * *

Entries and their IC50
Biological target: CXCR2 (Homo sapiens, UniProt P25025)
Sequence (P25025 1-360): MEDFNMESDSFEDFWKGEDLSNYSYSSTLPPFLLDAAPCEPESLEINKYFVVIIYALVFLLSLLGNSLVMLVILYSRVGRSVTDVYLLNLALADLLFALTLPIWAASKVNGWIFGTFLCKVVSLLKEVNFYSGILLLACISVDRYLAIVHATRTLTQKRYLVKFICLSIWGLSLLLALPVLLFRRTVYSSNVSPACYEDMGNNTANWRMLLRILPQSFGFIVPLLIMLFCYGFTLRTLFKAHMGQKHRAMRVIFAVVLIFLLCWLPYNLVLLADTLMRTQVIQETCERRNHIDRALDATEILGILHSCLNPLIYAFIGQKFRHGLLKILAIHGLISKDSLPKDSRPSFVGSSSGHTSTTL
Test: Human Neutrophil Chemotaxis Assay
Assay type: cell-based
Design: Human neutrophils were purified from freshly drawn human whole blood; endogenous in cells; host or cells: primary human neutrophils from fresh whole blood
Details: Table 17; WO 2013/061005 comparator compounds; read-out: IC50 (nM) CXCR2 Neutrophil, GROα Chemotaxis
REPORTED PROPERTY: IC50

1) Cc1ccc([C@H](Nc2c(Nc3cccc(C(=O)N(C)C)c3O)c(=O)c2=O)C2(C)COC2)o1 [Example 50, reference compound] ... 121 nM
2) Cc1ccc([C@H](Nc2c(Nc3ccc(Cl)c(S(=O)(=O)N(C)C)c3O)c(=O)c2=O)C2(C)COC2)o1 [Example 22 (WO 2013/061005), reference compound] ... 35.2 nM
3) Cc1ccc([C@H](Nc2c(Nc3ccc(Cl)c(C(=O)N4CCN(C)CC4)c3O)c(=O)c2=O)C2(C)COC2)o1 [Example 53, reference compound] ... 1140 nM

* * *

Molecular target: CXCR2 (Homo sapiens, UniProt P25025)
Sequence (P25025 1-360): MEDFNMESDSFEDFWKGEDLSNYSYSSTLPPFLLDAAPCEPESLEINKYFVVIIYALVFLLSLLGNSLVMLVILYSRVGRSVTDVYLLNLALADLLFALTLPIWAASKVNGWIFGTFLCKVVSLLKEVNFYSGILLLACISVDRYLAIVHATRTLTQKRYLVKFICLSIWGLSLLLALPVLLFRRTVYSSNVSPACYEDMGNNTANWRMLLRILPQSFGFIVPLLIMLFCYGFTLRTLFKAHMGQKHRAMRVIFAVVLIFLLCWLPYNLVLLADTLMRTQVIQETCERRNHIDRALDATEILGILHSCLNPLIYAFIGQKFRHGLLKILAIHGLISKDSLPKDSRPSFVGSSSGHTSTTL
Experiment: Human Neutrophil Chemotaxis Assay
Type: cell-based
Parameters: Human neutrophils were purified from freshly drawn human whole blood; endogenous in cells; host or cells: primary human neutrophils from fresh whole blood
Details: Table 14; R = CH3; read-out: R = CH3, IC50 (nM) CXCR2 Neutrophil, GROα Chemotaxis
REPORTED PROPERTY: IC50

1) Cc1cn(C)nc1[C@H](Nc1c(Nc2ccnc(C(=O)N(C)C)c2O)c(=O)c1=O)C1(C)CCCC1 ... 524 nM
2) Cc1nc([C@H](Nc2c(Nc3ccnc(C(=O)N(C)C)c3O)c(=O)c2=O)C2(C)CCCC2)c(C)s1 ... 332 nM

* * *

biological target: CXCR2 (Homo sapiens, UniProt P25025); assay: Human Neutrophil Chemotaxis Assay; assay type: cell-based; set-up: Human neutrophils were purified from freshly drawn human whole blood; endogenous in cells; host or cells: primary human neutrophils from fresh whole blood; conditions: Table 12; human neutrophils migrating towards the CXCR2 ligand GROα; read-out: IC50
hey, just use y if measured IC50 is less than 0.9 µM, otherwise n

1) Cc1cn(C)nc1[C@H](Nc1c(Nc2ccnc(C(=O)N(C)C(C)C)c2O)c(=O)c1=O)C1(C)CCCC1 ... n
2) Cc1nc([C@H](Nc2c(Nc3ccnc(C(=O)N(C)C)c3O)c(=O)c2=O)[C@]2(C)CC(F)(F)CO2)c(C)s1 ... n
3) Cc1nc([C@H](Nc2c(Nc3ccnc(C(=O)N(C)C)c3O)c(=O)c2=O)C2(C)CCCC2)c(C)o1 (single isomer, unassigned) ... n
4) CCN(C)C(=O)c1nccc(Nc2c(N[C@@H](c3nn(C)cc3C#N)C3(C)CCCC3)c(=O)c2=O)c1O ... n
5) Cc1nc([C@H](Nc2c(Nc3ccnc(C(=O)N(C)C)c3O)c(=O)c2=O)C(C)(C)C)c(C)s1 ... y
6) Cc1cn(C)nc1[C@H](Nc1c(Nc2ccnc(C(=O)N(C)C)c2O)c(=O)c1=O)C1(C)CC1 ... y

* * *

target: CXCR2 (Homo sapiens, UniProt P25025); assay: Human Neutrophil Chemotaxis Assay; assay type: cell-based; set-up: Human neutrophils were purified from freshly drawn human whole blood; endogenous in cells; host or cells: primary human neutrophils from fresh whole blood; settings: Table 12; human neutrophils migrating towards the CXCR2 ligand GROα; read-out: IC50
pIC50: −log10 of the molar value.
# if value of pIC50 reaches 6, tag TRUE; if it stays below, tag FALSE

1. Cc1cn(C)nc1[C@H](Nc1c(Nc2ccnc(C(=O)N(C)C)c2O)c(=O)c1=O)[C@]1(C)CC(F)(F)CO1 (single isomer, unassigned) ... FALSE
2. Cc1sc(CO)nc1[C@H](Nc1c(Nc2ccnc(C(=O)N(C)C)c2O)c(=O)c1=O)C1(C)CCCC1 ... FALSE
3. Cc1cn(C)nc1[C@H](Nc1c(Nc2ccnc(C(=O)N(C)C)c2O)c(=O)c1=O)C1(C)CCCC1 ... TRUE
4. [2H]C([2H])([2H])c1cn(C)nc1[C@H](Nc1c(Nc2ccnc(C(=O)N(C)C)c2O)c(=O)c1=O)C1(C)CCCC1 (single isomer, unassigned) ... TRUE

* * *

Target: CCR6 (Homo sapiens, UniProt P51684)
Construct: Human CD4+CCR6+CXCR3-T cells were isolated from leukopak from healthy donors; endogenous in cells
Sequence (P51684 1-374): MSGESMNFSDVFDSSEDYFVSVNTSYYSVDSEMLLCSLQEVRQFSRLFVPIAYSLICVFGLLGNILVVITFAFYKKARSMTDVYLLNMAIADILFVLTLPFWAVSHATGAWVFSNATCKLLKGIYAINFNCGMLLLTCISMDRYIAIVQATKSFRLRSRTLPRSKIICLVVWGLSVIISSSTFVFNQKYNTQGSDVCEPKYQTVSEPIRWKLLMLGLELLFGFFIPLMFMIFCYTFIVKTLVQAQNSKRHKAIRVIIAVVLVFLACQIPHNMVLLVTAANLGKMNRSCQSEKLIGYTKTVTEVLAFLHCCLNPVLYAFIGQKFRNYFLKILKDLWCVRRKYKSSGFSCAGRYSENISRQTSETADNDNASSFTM
Experiment: CCR6+ T Cell Chemotaxis Assay
Assay type: cell-based
Details: Table 13; T cell chemotaxis compared to neutrophil chemotaxis; NS = not selective for T cell chemotaxis compared to neutrophil chemotaxis
Protocol: Human CD4+CCR6+CXCR3-T cells were isolated from leukopak from healthy donors using EasySep™ Human Th17 Cell Enrichment Kit. […] Day 4 post activation, Dynabeads were removed from the culture. The activated T cells were maintained at 1-2×10^6 cells/mL for 15 days by feeding fresh growth media when needed. […] IC50 values for compounds of the present invention (Table 11) were determined by the non-linear regression analysis of dose response curves.
hey, just use T if measured T Cell Chemotaxis Selectivity is less than 100, otherwise F

1. Cc1nc([C@H](Nc2c(Nc3ccnc(C(=O)N(C)C)c3O)c(=O)c2=O)C2(C)CCC2)c(C)s1 [Example 24] ... F
2. Cc1cn(C)nc1[C@H](Nc1c(Nc2ccnc(C(=O)N(C)C)c2O)c(=O)c1=O)[C@]1(C)CC(F)(F)CO1 (single isomer, unassigned) [Example 36] ... F
3. Cc1cn(C)nc1[C@H](Nc1c(Nc2ccnc(C(=O)N(C)C)c2O)c(=O)c1=O)C1(C)CCC1 [Example 23] ... T
4. CCN(C)C(=O)c1nccc(Nc2c(N[C@@H](c3nn(C)cc3C#N)C3(C)CCCC3)c(=O)c2=O)c1O [Example 30] ... T
5. CCN(C)C(=O)c1nccc(Nc2c(N[C@@H](c3nn(C)cc3C)C3(C)CCCC3)c(=O)c2=O)c1O [Example 4] ... F
6. COc1cn(C)nc1[C@H](Nc1c(Nc2ccnc(C(=O)N(C)C(C)C)c2O)c(=O)c1=O)C(C)(C)C [Example 14] ... T
